All values here come from patent US7893056B2.

Overview of reported MIC across a group of compounds:
# Tested on: Streptococcus pneumoniae Ery2
testReadout: MIC (µg/mL)

> print(dat)
                               recordsmiles  observedmeasurement
1  Cc1nc(NNC(=O)[C@H](CC2CCCC2)CN(O)C=O)c(F)c(N2CCN(C)C3(CC3)C2)n1                  0.5
2  C[C@@H]1CN(C)CCN1c1nc(Cl)nc(NNC(=O)[C@H](CC2CCCC2)CN(O)C=O)c1F                 0.25
3  Cc1nc(NNC(=O)[C@H](CC2CCCC2)CN(O)C=O)c(F)c(N2CCN3CCOC[C@@H]3C2)n1                0.375
4  Cc1nc(NNC(=O)[C@H](CC2CCCC2)CN(O)C=O)c(F)c(N2CCN(C)C[C@H]2C)n1                 0.25

----------
Here's a batch of molecules along with measured MIC for Staphylococcus aureus Oxford.
testReadout: MIC

> print(dat)
                                   molecule  testreadout  observedmeasurement
1  C[C@@H]1CN(C)CCN1c1nc(Cl)nc(NNC(=O)[C@H](CC2CCCC2)CN(O)C=O)c1F [Example 63]          MIC               1 mg/L
2  Cc1nc(NNC(=O)[C@H](CC2CCCC2)CN(O)C=O)c(F)c(N2CCN(C)C[C@H]2C)n1 [Example 109]          MIC               2 mg/L
3  Cc1nc(NNC(=O)[C@H](CC2CCCC2)CN(O)C=O)c(F)c(N2CCN(C)C3(CC3)C2)n1 [Example 275]          MIC               2 mg/L
4  CN1CCN(c2nc(Cl)nc(NNC(=O)[C@H](CC3CCCC3)CN(O)C=O)c2F)CC12CC2 [Example 172]          MIC               1 mg/L

----------
Here's a batch of molecules along with measured MIC for Enterococcus faecalis 1.
testReadout: MIC

> print(dat)
                               recordsmiles  observedmeasurement
1  CN1CCN(c2nc(Cl)nc(NNC(=O)[C@H](CC3CCCC3)CN(O)C=O)c2F)CC12CC2             16 µg/mL
2  Cc1nc(NNC(=O)[C@H](CC2CCCC2)CN(O)C=O)c(F)c(N2CCN(C)C[C@H]2C)n1             64 µg/mL
3  Cc1nc(NNC(=O)[C@H](CC2CCCC2)CN(O)C=O)c(F)c(N2CCN(C)C3(CC3)C2)n1             32 µg/mL
4  C[C@@H]1CN(C)CCN1c1nc(Cl)nc(NNC(=O)[C@H](CC2CCCC2)CN(O)C=O)c1F             16 µg/mL
